- TEST SYSTEM: EGFR (d746-750) (Homo sapiens, UniProt P00533, DEL746-750)
- Construct: purchased SignalChem E10-122JG
- Sequence (P00533 with tags, fused parts or gaps DEL746-750 limits assumed): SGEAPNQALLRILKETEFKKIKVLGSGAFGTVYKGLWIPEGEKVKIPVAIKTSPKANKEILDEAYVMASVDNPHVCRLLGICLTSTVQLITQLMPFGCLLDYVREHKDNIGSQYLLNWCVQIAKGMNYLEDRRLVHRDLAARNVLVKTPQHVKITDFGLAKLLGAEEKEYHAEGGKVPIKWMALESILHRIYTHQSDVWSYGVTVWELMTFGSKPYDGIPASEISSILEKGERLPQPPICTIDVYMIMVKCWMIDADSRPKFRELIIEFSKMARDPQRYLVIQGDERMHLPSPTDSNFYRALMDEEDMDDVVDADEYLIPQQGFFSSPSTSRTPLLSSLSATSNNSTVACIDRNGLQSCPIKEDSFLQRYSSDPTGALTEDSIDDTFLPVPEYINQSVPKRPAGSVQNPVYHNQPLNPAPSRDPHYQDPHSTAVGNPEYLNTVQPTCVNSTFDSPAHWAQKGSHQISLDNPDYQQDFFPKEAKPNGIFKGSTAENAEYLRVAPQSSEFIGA
- PROTOCOL: Biochemical EGFR inhibition assay (Caliper mobility shift), EGFR (d746-750)
- CONDITION: read-out: Enz EGFR_Exon19-del746-750 IC50
Item-by-item account of IC50

Example cases with answers are listed next.
C[C@H](CN(C)C)Oc1cc(-c2cn(C)nc2OC(F)F)cc2ncnc(Nc3ccc4ncccc4c3F)c12    < 10 nM
C[C@H](CN(C)C)Oc1cc(-c2cnn(C)c2)cc2ncnc(Nc3ccc4c(ccc[n+]4[O-])c3F)c12 (single isomer, unassigned)    < 10 nM

In: // returns reported IC50 for input C[C@H](CN(C)C)Oc1cc(-c2cnn(C)c2)cc2ncnc(Nc3ccc4nccnc4c3F)c12
Out: 10.1 to 50 nM

In: // returns reported IC50 for input CCn1cc(-c2cc(OC3CCN(C)CC3)c3c(Nc4ccc5ncccc5c4F)ncnc3c2)c(OC)n1
Out: < 10 nM

In: // returns reported IC50 for input C[C@@H](Oc1cc(N2CCOC(C)(C)C2)cc2ncnc(Nc3ccc4ncccc4c3F)c12)C1COC1
Out: < 10 nM

In: // returns reported IC50 for input C[C@H](CN(C)C)Oc1cc(N2CCC3(COC3)C2)cc2ncnc(Nc3ccc4ncccc4c3F)c12
Out: < 10 nM

In: // returns reported IC50 for input C[C@H](CN(C)C)Oc1cc(-c2cnn(C)c2)cc2ncnc(Nc3cnc4ncccc4c3)c12
Out: < 10 nM

* * *

- TEST SYSTEM: EGFR (d746-750) (Homo sapiens, UniProt P00533, DEL746-750)
- Construct: purchased SignalChem E10-122JG
- PROTOCOL: Biochemical EGFR inhibition assay (Caliper mobility shift), EGFR (d746-750)
- CONDITION: 1.0 mM ATP or ATP Km; room temperature (25° C.); read-out: Enz EGFR_Exon19-del746-750 IC50
pIC50: −log10 of the molar value.
OBSERVATION TYPE: pIC50

Example cases with answers are listed next.
C[C@H](Oc1cc(-c2cnn(C)c2)cc2ncnc(Nc3ccc4ncccc4c3F)c12)C(=O)N(C)C (single isomer, unassigned) [Example 137]    > 8.00
C[C@@H](CN(C)C)Oc1cc(-c2cnn(C)c2)cc2ncnc(Nc3ccc4ncccc4c3)c12 (single isomer, unassigned) [Example 44]    > 8.00

In: // returns reported pIC50 for input C[C@H](Oc1cc(-c2cnn(C)c2)cc2ncnc(Nc3ccc4ncccc4c3F)c12)C(=O)N1CCOCC1 (single isomer, unassigned) [Example 139]
Out: > 8.00

In: // returns reported pIC50 for input C[C@H](Oc1cc(-c2cnn(C)c2)cc2ncnc(Nc3ccc4ncccc4c3F)c12)C1COC1 (single isomer, unassigned) [Example 2]
Out: > 8.00

In: // returns reported pIC50 for input CN(C)[C@@H]1CC[C@H]1Oc1cc(-c2cnn(C)c2)cc2ncnc(Nc3ccc4ncccc4c3F)c12 (single isomer, unassigned) [Example 141]
Out: 7.30 to 8.00

In: // returns reported pIC50 for input C[C@@H](CN(C)C)Oc1cc(N2CC3CC(C2)O3)cc2ncnc(Nc3ccc4ncccc4c3)c12 (single isomer, unassigned) [Example 68]
Out: > 8.00
